# IC50 measurements, system: DOR (Homo sapiens, UniProt P41143)
# Sequence (P41143 whole entry): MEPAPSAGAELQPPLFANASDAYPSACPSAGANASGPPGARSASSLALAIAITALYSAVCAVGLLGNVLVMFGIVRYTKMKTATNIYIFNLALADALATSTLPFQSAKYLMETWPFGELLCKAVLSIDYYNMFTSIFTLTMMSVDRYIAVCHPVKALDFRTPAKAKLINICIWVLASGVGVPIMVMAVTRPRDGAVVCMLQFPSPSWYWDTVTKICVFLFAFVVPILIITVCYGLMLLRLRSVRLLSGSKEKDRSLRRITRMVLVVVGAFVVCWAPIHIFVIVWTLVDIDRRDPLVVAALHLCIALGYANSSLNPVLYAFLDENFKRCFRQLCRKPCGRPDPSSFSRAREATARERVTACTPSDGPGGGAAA
Non-standard residues stand in square brackets, D forms with d. Residues, ends and D or L forms follow the SMILES beside them. *: point of attachment. NH(3,5-(CF3)2-benzyl) = FC(F)(F)c1cc(CN*)cc(C(F)(F)F)c1; NMeF = CN[C@@H](Cc1ccccc1)C(=O)O

COMPOUND	IC50 [nM]
CC(C)C[C@H](NC(=O)[C@@H]1CCCN1C(=O)CNC(=O)[C@H](CO)NC(=O)[C@H](Cc1ccccc1)N(C)C(=O)CNC(=O)[C@@H](C)NC(=O)[C@@H](N)Cc1ccc(O)cc1)C(=O)N[C@@H](Cc1c[nH]c2ccccc12)C(=O)NCc1cc(C(F)(F)F)cc(C(F)(F)F)c1 [AKG-CRA-136] (H-Y[dA]G[NMeF]SGPLW-{NH(3,5-(CF3)2-benzyl)})	85.1
CC(C)C[C@H](NC(=O)[C@@H]1CCCN1C(=O)CNC(=O)[C@H](CCC(N)=O)NC(=O)[C@H](Cc1ccccc1)N(C)C(=O)CNC(=O)[C@@H](C)NC(=O)[C@@H](N)Cc1ccc(O)cc1)C(=O)N[C@@H](Cc1c[nH]c2ccccc12)C(=O)NCc1cc(C(F)(F)F)cc(C(F)(F)F)c1 [AKG-SK-145] (H-Y[dA]G[NMeF]QGPLW-{NH(3,5-(CF3)2-benzyl)})	14.5
CC(C)C[C@H](NC(=O)[C@@H]1CCCN1C(=O)[C@H](CC(N)=O)NC(=O)[C@H](Cc1ccccc1)NC(=O)CNC(=O)[C@@H](C)NC(=O)[C@@H](N)Cc1ccc(O)cc1)C(=O)N[C@@H](Cc1c[nH]c2ccccc12)C(=O)NCc1cc(C(F)(F)F)cc(C(F)(F)F)c1	37.2
CC(C)C[C@H](NC(=O)[C@@H]1CCCN1C(=O)c1ccc(NC(=O)[C@H](Cc2ccccc2)N(C)C(=O)CNC(=O)[C@@H](C)NC(=O)[C@@H](N)Cc2ccc(O)cc2)cc1)C(=O)N[C@@H](Cc1c[nH]c2ccccc12)C(=O)NCc1cc(C(F)(F)F)cc(C(F)(F)F)c1	182
CCCC[C@H](NC(=O)[C@H](Cc1ccccc1)N(C)C(=O)CNC(=O)[C@@H](C)NC(=O)[C@@H](N)Cc1ccc(O)cc1)C(=O)N1CCC[C@H]1C(=O)N[C@@H](CC(C)C)C(=O)N[C@@H](Cc1c[nH]c2ccccc12)C(=O)NCc1cc(C(F)(F)F)cc(C(F)(F)F)c1	50.1
CC(C)C[C@H](NC(=O)[C@@H]1CCCN1C(=O)c1ccc(CNC(=O)[C@H](Cc2ccccc2)N(C)C(=O)CNC(=O)[C@@H](C)NC(=O)[C@@H](N)Cc2ccc(O)cc2)cc1)C(=O)N[C@@H](Cc1c[nH]c2ccccc12)C(=O)NCc1cc(C(F)(F)F)cc(C(F)(F)F)c1	263
CC(C)C[C@H](NC(=O)[C@@H]1CCCN1C(=O)CNC(=O)[C@H](Cc1ccccc1)N(C)C(=O)CNC(=O)[C@@H](C)NC(=O)[C@@H](N)Cc1ccc(O)cc1)C(=O)N[C@@H](Cc1c[nH]c2ccccc12)C(=O)NCc1cc(C(F)(F)F)cc(C(F)(F)F)c1 [AKG113] (H-Y[dA]G[NMeF]GPLW-{NH(3,5-(CF3)2-benzyl)})	100
